test system: Bacteroides caccae; experiment: growth AUC relative to DMSO control (median of replicates) (fraction); higher = more growth (less inhibition), active = hit call of the paper; conditions: 20 µM; 24 h
Let's look at some compounds and their measured growth AUC.
Just the number.

[
  {
    "SMILES_DATA": "Oc1cccc2ccccc12",
    "TARGET_ENTITY": "Bacteroides caccae",
    "growth AUC": 1.04
  },
  {
    "SMILES_DATA": "CCc1cccc(CC)c1N(COC)C(=O)C(=O)O",
    "TARGET_ENTITY": "Bacteroides caccae",
    "growth AUC": 1.03
  }
]

Q) So what does the record say about growth AUC for CC1=C(c2ccccc2)C(=O)N(C(C)(C)c2cc(Cl)cc(Cl)c2)CO1 ?
A) 0.962

Q) And what about the compound CCc1cc(C(=O)O)cc(CC)c1C1C(=O)N2CCOCCN2C1=O ?
A) 1.04

Q) // repeat for O=[N+]([O-])c1ccc(O)cc1 and report
A) 1.01
